Sourced from the supplement of paper PMC10981050

Known cell viability of a selection of molecules
Tested on: MOLM14;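 further: after 48 h exposure read by CellTiter-Glo luminescence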
protocol text: cell viability relative to vehicle control; higher = less cytotoxic
measurement setup: 10 µM; SRSF2 genotype: SRSF2 P95H/wt

{"molecule": "Nc1ccc(C(=O)Nc2cccc(-c3nc(N4CCOCC4)c4oc5ncccc5c4n3)c2)cn1", "cell viability": "103%"}
{"molecule": "CN(NC(=O)CC(=O)NN(C)C(=S)c1ccccc1)C(=S)c1ccccc1 [Elesclomol (STA-4783)]", "cell viability": "0.35%"}
{"molecule": "c1cc(-c2cnn3cc(-c4ccc(N5CCNCC5)cc4)cnc23)c2cccnc2c1", "cell viability": "0.26%"}
{"molecule": "CC(=O)CCc1ccccc1 [Benzylacetone]", "cell viability": "106%"}
{"molecule": "CC1=C(CC[C@@H](C)CO[C@@H]2O[C@H](CO)[C@@H](O)[C@H](O)[C@H]2O)O[C@H]2C[C@H]3[C@@H]4CC=C5C[C@@H](O[C@@H]6O[C@H](CO)[C@@H](O[C@@H]7O[C@@H](C)[C@H](O)[C@@H](O)[C@H]7O)[C@H](O)[C@H]6O[C@@H]6O[C@@H](C)[C@H](O)[C@@H](O)[C@H]6O)CC[C@]5(C)[C@H]4CC[C@]3(C)[C@@H]12 [Pseudoprotodioscin]", "cell viability": "96.2%"}
{"molecule": "COc1ccc2[nH]c(=O)oc2c1 [Coixol]", "cell viability": "103%"}
{"molecule": "O=C(O)c1cccnc1 [Niacin (Nicotinic acid)]", "cell viability": "103%"}
{"molecule": "CC[C@H]1OC(=O)[C@H](C)[C@@H](O[C@H]2C[C@@](C)(OC)[C@@H](O)[C@H](C)O2)[C@H](C)[C@@H](O[C@@H]2O[C@H](C)C[C@H](N(C)C)[C@H]2O)[C@](C)(O)C[C@@H](C)CN[C@H](C)[C@@H](O)[C@]1(C)O [Azathramycin]", "cell viability": "109%"}
{"molecule": "CN(CC(=O)N(Cc1ccc(C2CCCCC2)cc1)c1ccc(C(=O)O)cc1)S(=O)(=O)c1c(F)c(F)c(F)c(F)c1F", "cell viability": "0.37%"}
